target: Tyrosyl-tRNA synthetase, putative (Trypanosoma cruzi (strain CL Brener)) (UniProt Q4DSP6); experiment: Trypanosoma cruzi tyrosyl tRNA synthetase (TcYRS) SOP; type: functional; set-up: scale not given: direction of the effect not stated beside the values; conditions: 30 µM
Sequence (Q4DSP6 as listed by the source): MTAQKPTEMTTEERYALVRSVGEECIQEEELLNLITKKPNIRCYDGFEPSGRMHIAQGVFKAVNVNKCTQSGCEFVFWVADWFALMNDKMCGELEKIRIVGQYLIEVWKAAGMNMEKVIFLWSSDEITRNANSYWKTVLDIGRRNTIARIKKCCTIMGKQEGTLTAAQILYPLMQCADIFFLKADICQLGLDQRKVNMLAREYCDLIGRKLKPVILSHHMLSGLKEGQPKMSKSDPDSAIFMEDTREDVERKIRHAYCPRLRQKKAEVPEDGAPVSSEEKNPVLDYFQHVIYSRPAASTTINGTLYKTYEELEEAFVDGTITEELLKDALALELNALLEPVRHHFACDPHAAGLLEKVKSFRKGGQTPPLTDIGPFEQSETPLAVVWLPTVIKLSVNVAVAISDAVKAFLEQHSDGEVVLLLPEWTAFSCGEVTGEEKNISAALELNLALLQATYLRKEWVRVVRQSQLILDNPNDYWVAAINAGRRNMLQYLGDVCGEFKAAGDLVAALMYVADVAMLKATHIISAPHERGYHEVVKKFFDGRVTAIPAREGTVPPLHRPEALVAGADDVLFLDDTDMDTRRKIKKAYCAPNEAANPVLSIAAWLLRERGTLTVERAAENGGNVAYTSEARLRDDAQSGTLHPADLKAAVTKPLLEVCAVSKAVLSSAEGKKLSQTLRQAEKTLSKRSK

{"molecule": "CCc1nnc2n1CC(CNCc1ccncc1)CC2 (stereo not drawn)", "units of measure": "%", "Percent Effect": 0}
{"molecule": "CN1CCCC(c2cccc(Cc3ccccc3Cl)n2)C1 (stereo not drawn)", "units of measure": "%", "Percent Effect": 1.3}
{"molecule": "O=C(COc1coc(CN2CCOCC2)cc1=O)c1ccc(Cl)cc1", "units of measure": "%", "Percent Effect": 0}
{"molecule": "COc1ccc(CS(=O)(=O)CC(=O)NCC2CC2)cc1F", "units of measure": "%", "Percent Effect": 18.2}
{"molecule": "Cc1cnn(CC2CCCCN2C(=O)CN(C)C2CC2)c1 (stereo not drawn)", "units of measure": "%", "Percent Effect": 15.2}
{"molecule": "COc1ccc(CN2C[C@H]3CC[C@](O)(c4ccc(C)cn4)[C@H]3C2)c(F)c1", "units of measure": "%", "Percent Effect": 6.49}
{"molecule": "O=C(CCc1nccs1)N1CCN(c2ccccc2F)CC1", "units of measure": "%", "Percent Effect": 8.86}
{"molecule": "CC(C)Oc1ncccc1CNC(=O)N1CCC(C(N)=O)C1 (stereo not drawn)", "units of measure": "%", "Percent Effect": 7.32}
{"molecule": "Cc1noc([C@H]2C[C@H]3OCC[C@H]3N(Cc3ccc4c(c3)OCO4)C2)n1", "units of measure": "%", "Percent Effect": 17.9}
{"molecule": "CC(O)CNCc1ccc(OCc2ccc3c(c2)OCCO3)cc1 (stereo not drawn)", "units of measure": "%", "Percent Effect": 5.2}
{"molecule": "O=C(C1CC=CC1)N1CCc2c(COCc3ccncc3)cncc2C1", "units of measure": "%", "Percent Effect": 11.1}
{"molecule": "Cc1cnc2n(c1=O)CC(C(=O)Nc1cccc3cccnc13)CS2 (stereo not drawn)", "units of measure": "%", "Percent Effect": 0}
{"molecule": "CC(=O)N1CCCN(C(=O)NCc2cc[nH]n2)CC1", "units of measure": "%", "Percent Effect": 23.5}
{"molecule": "CN(Cc1cc[nH]n1)C(=O)c1cccc(CCC(C)(C)O)c1", "units of measure": "%", "Percent Effect": 3.7}
{"molecule": "Cc1ccc2c(n1)N(CCN(C)C)CCN(C(=O)c1ccc[nH]1)C2", "units of measure": "%", "Percent Effect": 3.85}
{"molecule": "O=C1CN(Cc2nnc(-c3ccc(Br)cc3)o2)CCN1", "units of measure": "%", "Percent Effect": 2.56}
{"molecule": "Cc1ccsc1CN(CCN(C)C)Cc1ccccn1", "units of measure": "%", "Percent Effect": 15.4}
{"molecule": "Fc1ccc(CN2CC[C@H]3O[C@@H](COCC4CCOCC4)CC[C@H]32)cc1", "units of measure": "%", "Percent Effect": -1.28}
{"molecule": "COCc1ccccc1CNc1cc(N2CCCC2CO)ncn1 (stereo not drawn)", "units of measure": "%", "Percent Effect": 19.5}
{"molecule": "COc1cccc(S(=O)(=O)NC(=O)COC2CCCC2)c1", "units of measure": "%", "Percent Effect": 24.4}
{"molecule": "Cc1n[nH]c(C)c1C1CCCN1C(=O)CNC(=O)C(C)(C)C (stereo not drawn)", "units of measure": "%", "Percent Effect": 5}
{"molecule": "Cc1[nH]nc2ncc(C(=O)N3CCN(CC(C)C)CC3)cc12", "units of measure": "%", "Percent Effect": 23.5}
{"molecule": "CN(C(=O)CCNC(=O)NC1CCCCC1)c1ccccc1", "units of measure": "%", "Percent Effect": 13}
{"molecule": "Cc1nn(C)c(Cl)c1C1CCCN1CCc1ccccn1 (stereo not drawn)", "units of measure": "%", "Percent Effect": 2.53}
{"molecule": "Cc1cc(NC(=O)N2CCN(c3nc(C)c(C)s3)CC2)no1", "units of measure": "%", "Percent Effect": 8.54}
{"molecule": "O=C1[C@H]2CC[C@H](CN(C3CSCCSC3)C2)N1Cc1cscn1", "units of measure": "%", "Percent Effect": 16.1}
{"molecule": "COCc1cccc(CNC(=O)CN2CCCC2c2noc(C)n2)c1 (stereo not drawn)", "units of measure": "%", "Percent Effect": 24.4}
{"molecule": "Cn1cc(N2CC3(CCN(S(=O)(=O)C4CC4)C3)CC2=O)cn1 (stereo not drawn)", "units of measure": "%", "Percent Effect": 27.5}
{"molecule": "Cc1ccsc1CNC(=O)Cc1c(C)nc2c(c1C)c(=O)[nH]n2C", "units of measure": "%", "Percent Effect": 11.8}
{"molecule": "O=C(NCCc1ccccn1)NC1CCN(c2ncccn2)CC1", "units of measure": "%", "Percent Effect": 23.5}
{"molecule": "CC(C)N(C)Cc1cn2c(n1)CN(Cc1ccsc1)CC2", "units of measure": "%", "Percent Effect": 8.64}
{"molecule": "O=C(CCn1ccc2cc(Br)ccc21)NCc1ccc(C(=O)O)cc1", "units of measure": "%", "Percent Effect": -10.4}
{"molecule": "CC(O)CN1CCN(Cc2cccc(C(=O)N(C)C)c2)CC1 (stereo not drawn)", "units of measure": "%", "Percent Effect": 3.66}
{"molecule": "Cc1nc(C2CCCN(C(=O)C(C)(C)n3cc(Cl)cn3)C2)no1 (stereo not drawn)", "units of measure": "%", "Percent Effect": 7.59}
{"molecule": "Cc1ccc(N2CC[C@H]3OCC[C@@]3(C(=O)NC(C)C)C2)nn1", "units of measure": "%", "Percent Effect": 18.3}
{"molecule": "Cc1ccc2c(c1)C1(CC2)CCN(c2nncs2)CC1", "units of measure": "%", "Percent Effect": 11.1}
{"molecule": "c1cc(OCc2ccc3c(c2)OCO3)ccc1CNC1CC1", "units of measure": "%", "Percent Effect": 0}
{"molecule": "COCc1cccc(NC(C)C(=O)N(C)Cc2cccc(F)c2)c1 (stereo not drawn)", "units of measure": "%", "Percent Effect": 1.24}
{"molecule": "Cc1cnn(CC2CN(Cc3nnc(C4CC4)o3)CCO2)c1 (stereo not drawn)", "units of measure": "%", "Percent Effect": 3.66}
{"molecule": "O=C(NCc1ccco1)c1nn(C2CCS(=O)(=O)C2)c2c1CCCC2 (stereo not drawn)", "units of measure": "%", "Percent Effect": 5.2}
{"molecule": "O=C(NC1CCC1)[C@@H]1CCO[C@@H]2CCN(CCc3ccccc3)C[C@H]21", "units of measure": "%", "Percent Effect": 18.3}
{"molecule": "CCNC(=O)c1nnc2ccc(N3CCOCC3)cc2n1", "units of measure": "%", "Percent Effect": 7.69}
{"molecule": "CNc1nc2c(s1)C(c1cccc(F)c1F)CC(=O)N2 (stereo not drawn)", "units of measure": "%", "Percent Effect": -13}
{"molecule": "CCCn1nc2c(cc1=O)CN(CCCS(N)(=O)=O)CC2", "units of measure": "%", "Percent Effect": -8.64}
{"molecule": "Cc1ccc(CC(=O)N2CCOC(c3nc(C)n[nH]3)C2)cn1 (stereo not drawn)", "units of measure": "%", "Percent Effect": 12.8}
{"molecule": "Cc1ncc2c(n1)CCN(C(=O)Cc1c(C)noc1C)C2", "units of measure": "%", "Percent Effect": 18.5}
{"molecule": "O=C(NCC1CC1)C1CN(C(=O)c2cccc(Cl)c2)CC12CCOCC2 (stereo not drawn)", "units of measure": "%", "Percent Effect": -8.97}
{"molecule": "CCC(=O)NCc1cc(Br)ccc1OC(F)F", "units of measure": "%", "Percent Effect": 18.5}

src = ChEMBL document CHEMBL3988442
